Tested on: SGC-7901
method.description: Selectivity index, ratio of IC50 for Taq polymerase to IC50 for telomerase in human SGC7901 cells
Type: cell-based
measurement.type: Selectivity Index

CC(=O)N1N=C(c2cc3ccccc3oc2=O)CC1c1ccc(Cl)cc1Cl (stereo unspecified) ... 2.1
CC(=O)N1N=C(c2cc3ccccc3oc2=O)CC1c1ccc(O)cc1 (stereo unspecified) ... 2
CC(=O)N1N=C(c2cc3c(Br)cccc3oc2=O)CC1c1ccc(O)cc1 (stereo unspecified) ... 2.5
CC(=O)N1N=C(c2cc3ccccc3oc2=O)CC1c1ccccc1Cl (stereo unspecified) ... 2.6
CC(=O)N1N=C(c2cc3c(Br)cccc3oc2=O)CC1c1ccccc1 (stereo unspecified) ... 2.2
CC(=O)N1N=C(c2cc3ccccc3oc2=O)CC1c1ccccc1 (stereo unspecified) ... 3

---

test.system: DNA polymerase I, thermostable (Thermus aquaticus, UniProt P19821)
Sequence (P19821 whole entry): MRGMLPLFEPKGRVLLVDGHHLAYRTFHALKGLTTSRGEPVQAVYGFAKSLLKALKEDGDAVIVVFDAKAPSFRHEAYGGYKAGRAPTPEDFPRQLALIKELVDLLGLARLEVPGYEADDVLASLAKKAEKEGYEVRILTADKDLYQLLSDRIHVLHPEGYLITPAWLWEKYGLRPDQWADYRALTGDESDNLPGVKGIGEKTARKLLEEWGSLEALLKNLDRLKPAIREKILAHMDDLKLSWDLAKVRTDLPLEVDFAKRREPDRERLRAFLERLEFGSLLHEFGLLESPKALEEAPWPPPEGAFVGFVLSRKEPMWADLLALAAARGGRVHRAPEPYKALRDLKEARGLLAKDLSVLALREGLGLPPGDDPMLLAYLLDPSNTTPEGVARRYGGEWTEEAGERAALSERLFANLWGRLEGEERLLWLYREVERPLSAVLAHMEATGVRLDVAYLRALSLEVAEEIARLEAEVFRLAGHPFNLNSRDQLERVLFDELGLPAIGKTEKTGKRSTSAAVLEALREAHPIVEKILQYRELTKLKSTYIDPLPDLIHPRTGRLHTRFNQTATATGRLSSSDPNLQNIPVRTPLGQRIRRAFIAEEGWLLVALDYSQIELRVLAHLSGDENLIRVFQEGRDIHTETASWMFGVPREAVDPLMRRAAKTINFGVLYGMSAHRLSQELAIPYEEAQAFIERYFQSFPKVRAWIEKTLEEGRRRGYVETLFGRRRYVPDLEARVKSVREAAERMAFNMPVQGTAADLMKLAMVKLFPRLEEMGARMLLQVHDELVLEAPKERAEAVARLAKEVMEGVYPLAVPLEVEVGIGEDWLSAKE
method.description: Inhibition of Taq polymerase
protocol.conditions: read-out: IC50
measurement.type: IC50 (µM)

CC(=O)N1N=C(c2cc3ccccc3oc2=O)CC1c1ccccc1 (stereo unspecified) ... 6
CC(=O)N1N=C(c2cc3ccccc3oc2=O)CC1c1ccc(O)cc1 (stereo unspecified) ... 58.5
CC(=O)N1N=C(c2cc3c(Br)cccc3oc2=O)CC1c1ccc(O)cc1 (stereo unspecified) ... 10
CC(=O)N1N=C(c2cc3ccccc3oc2=O)CC1c1ccccc1Cl (stereo unspecified) ... 16.8
CC(=O)N1N=C(c2cc3c(Br)cccc3oc2=O)CC1c1ccccc1 (stereo unspecified) ... 4
CC(=O)N1N=C(c2cc3ccccc3oc2=O)CC1c1ccc(Cl)cc1Cl (stereo unspecified) ... 20.7

---

test.system: Telomerase reverse transcriptase (Homo sapiens)
Sequence (O14746 whole entry): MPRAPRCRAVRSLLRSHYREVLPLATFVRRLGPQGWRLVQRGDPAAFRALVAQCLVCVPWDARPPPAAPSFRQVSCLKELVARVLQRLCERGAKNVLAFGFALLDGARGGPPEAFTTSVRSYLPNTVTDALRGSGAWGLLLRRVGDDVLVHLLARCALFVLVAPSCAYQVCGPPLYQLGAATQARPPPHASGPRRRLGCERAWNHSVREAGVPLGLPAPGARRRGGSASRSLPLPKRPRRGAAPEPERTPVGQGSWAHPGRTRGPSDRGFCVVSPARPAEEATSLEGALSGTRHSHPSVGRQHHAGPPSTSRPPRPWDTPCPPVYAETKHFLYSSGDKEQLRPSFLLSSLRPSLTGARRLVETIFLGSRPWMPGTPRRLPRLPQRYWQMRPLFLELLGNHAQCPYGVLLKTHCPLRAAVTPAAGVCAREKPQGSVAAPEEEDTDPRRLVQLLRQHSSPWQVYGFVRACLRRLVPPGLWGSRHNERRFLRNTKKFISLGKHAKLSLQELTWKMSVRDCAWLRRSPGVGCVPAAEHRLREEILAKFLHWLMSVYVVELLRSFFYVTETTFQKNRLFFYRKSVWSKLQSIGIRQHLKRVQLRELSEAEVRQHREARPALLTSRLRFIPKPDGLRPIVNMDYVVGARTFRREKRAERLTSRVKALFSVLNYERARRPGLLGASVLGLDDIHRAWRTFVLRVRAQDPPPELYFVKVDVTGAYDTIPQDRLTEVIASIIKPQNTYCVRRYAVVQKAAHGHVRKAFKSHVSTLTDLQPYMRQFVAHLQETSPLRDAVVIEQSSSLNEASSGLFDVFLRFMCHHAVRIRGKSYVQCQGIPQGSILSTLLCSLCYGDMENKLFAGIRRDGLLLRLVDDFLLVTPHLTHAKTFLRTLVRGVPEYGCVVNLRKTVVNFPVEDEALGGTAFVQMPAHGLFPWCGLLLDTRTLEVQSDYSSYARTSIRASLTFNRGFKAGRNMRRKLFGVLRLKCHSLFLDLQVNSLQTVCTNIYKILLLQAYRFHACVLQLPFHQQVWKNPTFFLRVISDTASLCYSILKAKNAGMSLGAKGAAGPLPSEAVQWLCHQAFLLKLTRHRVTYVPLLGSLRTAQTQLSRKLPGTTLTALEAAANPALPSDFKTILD
method.description: Inhibition of telomerase in human SGC7901 cells by TRAP assay
Assay type: cell-based, SGC-7901
protocol.conditions: read-out: IC50
pIC50: −log10 of the molar value.
Response key: True means pIC50 >= 5; False means pIC50 < 5.

CC[n+]1c(-c2ccccc2)c2cc(N)ccc2c2ccc(N)cc21 [HOMIDIUM BROMIDE] ... True
CC(=O)N1N=C(c2cc3ccccc3oc2=O)CC1c1ccccc1Cl (stereo not drawn) ... True
CC(=O)N1N=C(c2cc3ccccc3oc2=O)CC1c1ccccc1 (stereo not drawn) ... True
CC(=O)N1N=C(c2cc3c(Br)cccc3oc2=O)CC1c1ccccc1 (stereo not drawn) ... True
COc1ccc(C2CC(c3cc4ccccc4oc3=O)=NN2C(C)=O)cc1 (stereo not drawn) ... False
CC(=O)N1N=C(c2cc3c(Br)cccc3oc2=O)CC1c1ccc(O)cc1 (stereo not drawn) ... True
CC(=O)N1N=C(c2cc3ccccc3oc2=O)CC1c1ccc(O)cc1 (stereo not drawn) ... False

Source listed as ChEMBL document CHEMBL1255538.
